Values compiled from ChEMBL document CHEMBL6103560.

Experiment Description: Inhibition of TEAD(unknown origin)/YAP protein-protein interaction transfected in human SK-HEP1 cells incubated for 24 hrs by NanoLuc luciferase reporter assay
Format: cell-based
Parameter: IC50 (nM)
Output spec: scalar in nM, unitless text.

// worked examples, IC50 included
Cn1cc2c3cc(C(=O)NCCO)ccc3n(-c3ccc(C(F)(F)F)cc3)c2n1 = 62
CNC(=O)c1ccc2c(c1)c1nn(C)nc1n2-c1ccc(C(F)(F)F)cc1 = 18
O=C(O)c1ccc2c(c1)c1c(ncn1-c1cscn1)n2-c1ccc(C(F)(F)F)cc1 = 11
CCNC(=O)c1ccc2c(c1)c1cn(C)nc1n2-c1ccc(C(F)(F)F)cc1 = 13

Documented IC50 of Cc1snc2c1c1cc(C(=O)N[C@@H](CO)c3ccccn3)ccc1n2-c1ccc(C(F)(F)F)cc1 : 21

Record Cn1nc2c3cc(C(=O)N4CC[C@@H](O)C4)ccc3n(-c3ccc(C(F)(F)F)cc3)c2n1 , field IC50: 56

Looking up Cn1ccc([C@@H](CO)NC(=O)c2ccc3c(c2)c2cn(C)nc2n3-c2ccc(C(F)(F)F)cc2)n1 , I see its IC50 listed as 61

---

In this section we review reported IC50 values for a set of compounds.
Experiment Description: Inhibition of TEAD(unknown origin)/YAP protein-protein interaction transfected in human SK-HEP1 cells incubated for 24 hrs by NanoLuc luciferase reporter assay
Type: cell-based
Your answer is read as nM, so omit the unit and give the number.

Cc1snc2c1c1cc(C(=O)N[C@H](C)CO)ccc1n2-c1ccc(C(F)(F)F)cc1 = 20

For reference, reported IC50 for C[C@@H](CO)NC(=O)c1ccc2c(c1)c1cn(C)nc1n2-c1ccc(C(F)(F)F)cc1 stands at 146

Consider Cn1ccc([C@@H](CO)NC(=O)c2ccc3c(c2)c2nn(C)nc2n3-c2ccc(C(F)(F)F)cc2)n1 . Its measured IC50 is 120

Lab note: Cn1nc2c3cc(C(=O)NCCO)ccc3n(-c3ccc(C(F)(F)F)cc3)c2n1 gave IC50 of 28

For reference, reported IC50 for Cn1cc2c3cc(C(=O)N[C@H](CO)c4ccccn4)ccc3n(-c3ccc(C(F)(F)F)cc3)c2n1 stands at 573

Item: Cc1snc2c1c1cc(C(=O)NC3CC3)ccc1n2-c1ccc(C(F)(F)F)cc1 | IC50: 20

Record Cc1snc2c1c1cc(C(=O)N3CC[C@@H](O)C3)ccc1n2-c1ccc(C(F)(F)F)cc1 . Reported IC50: 133

Per the records, this compound ( CNC(=O)c1ccc2c(c1)c1cn(C)nc1n2-c1ccc(C(F)(F)F)cc1 ) has IC50 equal to 29

---

Study Target: UniProtKB Q99594
Sequence (Q99594 whole entry, the tested form may be a part): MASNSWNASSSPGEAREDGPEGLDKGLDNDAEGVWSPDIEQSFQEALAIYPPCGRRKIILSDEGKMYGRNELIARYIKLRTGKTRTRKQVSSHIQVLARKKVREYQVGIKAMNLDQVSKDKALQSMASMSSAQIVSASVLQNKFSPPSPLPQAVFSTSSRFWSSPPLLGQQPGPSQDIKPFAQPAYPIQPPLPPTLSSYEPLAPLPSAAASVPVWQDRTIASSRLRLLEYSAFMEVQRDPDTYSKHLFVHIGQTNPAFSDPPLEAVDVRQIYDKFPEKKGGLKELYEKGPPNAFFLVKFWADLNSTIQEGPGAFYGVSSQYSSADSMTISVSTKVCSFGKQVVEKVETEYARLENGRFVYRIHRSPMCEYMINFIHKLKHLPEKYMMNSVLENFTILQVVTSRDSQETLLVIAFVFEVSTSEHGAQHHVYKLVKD
Experiment Description: Induction of thermal stabilization of His-TEV tagged human TEAD3 (216 to 435 residues) extracted from Escherichia coli BL21 star (DE3) cells assessed as change in melting temperature at 100 uM incubated for 2 hrs by nano-differential scanning fluorimetric analysis
Listing of recorded ΔTm by entry.
// return numeric value only (unit: °C, not printed)

Answered examples (4):
Cn1ncc2c1c1cc(C(=O)O)ccc1n2-c1ccc(C(F)(F)F)cc1 = 3
O=C(O)c1ccc2c(c1)c1c(ncn1-c1ccccn1)n2-c1ccc(C(F)(F)F)cc1 = 1
Cn1cnc2c1c1cc(C(=O)O)ccc1n2-c1ccc(C(F)(F)F)cc1 = 11
Cc1snc2c1c1cc(C(=O)O)ccc1n2-c1ccc(C(F)(F)F)cc1 = 15

Attention now turns to another entry.
Reported ΔTm of O=C(O)c1ccc2c(c1)c1c(ncn1-c1cscn1)n2-c1ccc(C(F)(F)F)cc1 : 0
